B1: ATGL (PNPLA2, patatin-like phospholipase domain-containing protein 2), human, full length / perilipin-5, mouse (mPlin5) (parent)
chain 1: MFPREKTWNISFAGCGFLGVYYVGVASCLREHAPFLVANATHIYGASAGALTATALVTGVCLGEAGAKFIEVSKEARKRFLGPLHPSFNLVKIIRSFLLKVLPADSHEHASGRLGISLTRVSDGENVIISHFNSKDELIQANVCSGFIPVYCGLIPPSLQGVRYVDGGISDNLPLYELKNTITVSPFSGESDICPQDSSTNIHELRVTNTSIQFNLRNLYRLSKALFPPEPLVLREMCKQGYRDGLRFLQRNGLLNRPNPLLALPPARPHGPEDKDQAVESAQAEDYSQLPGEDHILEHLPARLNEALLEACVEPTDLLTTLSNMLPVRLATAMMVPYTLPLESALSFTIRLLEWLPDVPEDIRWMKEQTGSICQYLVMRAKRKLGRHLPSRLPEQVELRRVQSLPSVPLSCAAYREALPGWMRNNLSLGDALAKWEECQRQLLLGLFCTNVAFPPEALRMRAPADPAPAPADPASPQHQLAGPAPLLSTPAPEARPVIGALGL
chain 2: MDQRGEDTTLAPHSRMSGDQTAQDPGSSLGELDQQNVVNRVVALPLVKATCTAVSSAYNSAKDRHPLLGSACRLAEHCVCSVTTCALDHAQPLLEHLQPQLATVNDLACRGLDKLEEKLPFLQQPSDMVVTSAKDTVAKSVTGMVDLAQRGRRWSGELRRSMSQAMDMVLGKSEKLVDRFLPMTEAELAVLAAEAEGPEVGTVEEQRQQQGYFVRLGSLSARLRHLAYEHSLGKLRQSKHRTQEMLAQLQETLELIQHMQRGASPSPTFHPPKTQELWGSWSPCLENGRSHSEVELETLALSRSLTLELQNAVDALAGCVRGLPPSAQAKVAEVQRSVDALQATFADAHCLGDVAPTALAEGRGSVARAHACVDEFLDLVLRAMPLPWLVGPFAPILVEQSEPLINLATCVDEVVGDPDPRWAHMDWPAQKRAWEAESADPGGQEAEPPRGQGKHTMMPELDF

- Variants of: B1
- assay text: LUMIER: Protein A-ATGL variant and firefly luciferase-partner co-expressed in HEK293T, lysates immunoprecipitated on IgG-coated plates, co-precipitated partner measured as luciferase luminescence
- assay setup: with perilipin-5, mouse (mPlin5), transient co-transfection, IgG-coated LUMITRAC plates, 2 h at 4 °C, three PBS washes, Bright-Glo luciferase reagent, triplicates per assay, two …, parent: 0.46, not graded, scale: log2 fold change of co-immunoprecipitated luminescence relative to wild-type ATGL within each experiment
measurement label: screen value
I'd appreciate a reply containing only the number, no unit.

Below, 2 variants whose answers are already recorded.
chain 1 L159A : -0.435
chain 1 R113K : 0.667

Now let's try a different one.
Data request: Entry chain 1 K92L : reported screen value = ?
Data returned: 0.185
